# Experimental target: Sodium- and chloride-dependent GABA transporter 1 (Mus musculus)
# Experiment summary: Inhibition of mouse GAT1 expressed in human HEK293 cell line assessed as inhibition of [3H]GABA uptake measured after 40 mins by […]
Measure name: IC50 (µM)
Express it in µM; write the number only.

The molecule "O=C(O)[C@@H]1CCCN(CCC=C2c3ccccc3-c3ccccc32)C1" , tested on Sodium- and chloride-dependent GABA transporter 1 (Mus musculus), showed IC50 of 2

---

# Experimental target: Sodium- and chloride-dependent GABA transporter 1 (Mus musculus)
# Experiment summary: Inhibition of mouse GAT1 expressed in human HEK293 cell line assessed as inhibition of [3H]GABA uptake measured after 40 mins by […]
Measure name: IC50 (µM)
Express it in µM; write the number only.

Compound	Data value
CN(CCC=C1c2ccccc2C=Cc2ccccc21)C(CCO)C(=O)NCc1ccccc1Cl (stereo not drawn)	20.9
CN(CCC=C1c2ccccc2-c2ccccc21)C(CCO)C(=O)NCc1ccccc1Cl (stereo not drawn)	33.1

Record Cc1ccc(CNC(=O)C(CCO)N(C)CCC=C2c3ccccc3-c3ccccc32)cc1 (stereo not drawn) . Reported IC50: 31.6

Record CN(CCC=C1c2ccccc2-c2ccccc21)C(CCO)C(=O)NCc1ccc(Cl)cc1 (stereo not drawn) . Reported IC50: 42.7

Record CN(CCC=C1c2ccccc2CCc2ccccc21)C(CCN)C(=O)NCc1ccccc1Cl (stereo not drawn) . Reported IC50: 6.61

Record CN(CCC=C1c2ccccc2CCc2ccccc21)C(CCO)C(=O)NCc1ccccc1 (stereo not drawn) . Reported IC50: 20

Record CN(CCC=C1c2ccccc2CCc2ccccc21)C(CCO)C(=O)NCc1ccc(F)cc1 (stereo not drawn) . Reported IC50: 21.9

Record CN(CCC=C1c2ccccc2CCc2ccccc21)C(CCO)C(=O)NCc1ccccc1Cl (stereo not drawn) . Reported IC50: 25.1

meta.source: ChEMBL document CHEMBL4837220
